Hello, the source for this data is PubChem BioAssay, in case you need it.

test: growth inhibitors of H69AR lung tumor, primary screen, human, duplicate replicates (AID 580); details: H69AR lung tumor cells viability, ATP luminescence, 72 h; at 10 µM; stronger effect = lower value;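 further: 100% = mean luminescence of untreated wells and 0% = no signal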
Each item that follows carries a reported viability.
Return type: number; implicit unit %.

## Task What viability value was documented for this compound, `O=S(=O)(c1ccc2ccccc2c1)N1CCCCC1` ?
## Result 80.8

## Task Look up viability for this compound: `COc1ccc(-n2ccnc2SCC(=O)NCc2ccc3c(c2)OCO3)cc1`
## Result 87.2

## Task What viability value was documented for this compound, `CCOC(=O)C1CCN(c2c(NCCCN(CC)c3ccccc3)c(=O)c2=O)CC1` ?
## Result 81.1

## Task Report viability for `O=C(CSc1nc2ccccc2o1)Nc1ccccc1` please.
## Result 79

## Task Fill in the blank: the reported viability of `Cc1ccc(C)c(N2CCN(C(=O)CCCn3c(=S)[nH]c4cc5c(cc4c3=O)OCO5)CC2)c1` is ____.
## Result 94

## Task # query: viability of entry `COc1ccc(C(=O)c2ccccc2)c(O)c1`
## Result 106

## Task What viability value was documented for this compound, `c1ccc(Cc2nnc3n2CCCCC3)cc1` ?
## Result 99.2

## Task Fill in: viability of O=C(c1ccc(Cl)cc1)N(Cc1cccs1)C1CCS(=O)(=O)C1 (configuration not stated) is ___
## Result 89.2

## Task So what does the record say about viability for `Cc1cccn2c(=O)c3cc(C#N)c(=O)n(CCCN4CCOCC4)c3nc12` ?
## Result 102

## Task Item under review: CC1CN(C(=O)c2scc3c2OCCO3)CC(C)O1 (configuration not stated) . Reported viability?
## Result 104

## Task // returns reported viability for input CC1CN(C(=O)c2cc3cc(Cl)cc(Cl)c3oc2=O)CC(C)O1 (configuration not stated)
## Result 92.4

## Task Entry `CC1(C)CC(=O)c2cc(OCC(=O)NCCCN3CCN(c4ccccc4F)CC3)ccc2O1` has what viability?
## Result 80

## Task Dear colleague, I am looking for the recorded viability of the following compound: `COC(=O)c1[nH]c2ccccc2c1NC(=O)CN1CCC(C(N)=O)(N2CCCCC2)CC1`
## Result 93.2

## Task Can you look up the measured viability of `O=C(Nc1cccc(C(F)(F)F)c1)c1cccnc1N1CCCC1` for me?
## Result 95

## Task I'd like to know its viability. The compound in question is `Cc1nc(SCC(=O)N2CCC(C(N)=O)CC2)n[nH]1`
## Result 95.5

## Task Quick one: viability for `CCOc1ccc(Nc2nc(Cc3nnc(SCC(N)=O)o3)cs2)cc1` ?
## Result 93.6

## Task Query (compound): Cc1c(/C(O)=C2/C(=O)C(=O)N(CCN3CCOCC3)C2c2cccnc2)cnn1-c1ccccc1 (configuration not stated) ; field requested: viability
## Result 91.5

###

Listing: differential viability (reversal) of selected molecules
test: reversal of MRP1-mediated doxorubicin resistance, pilot screen, H69AR cells, doxorubicin co-treatment (AID 601); details: H69AR cells + 2 uM doxorubicin, CellTiter-Glo, 72 h; at 10 µM; stronger effect = higher value
Report the value in % with no unit label.

## Task Any idea what its differential viability (reversal) is? The molecule is `CCOc1ccc(-n2cc(C(=O)N3CCN(C)CC3)c3cc(OC)c(OC)cc3c2=O)cc1`
## Result -12.4

## Task Would you kindly share the measured differential viability (reversal) for CCCC(c1nnnn1Cc1ccc(OC)cc1)N1CCN(c2ccccc2OC)CC1 (stereo not drawn) ?
## Result -5.73

## Task Consider the molecule shown here: CCN(CCCNC(=O)CC1Oc2ccc(C)cc2NC1=O)Cc1ccccc1 (stereo not drawn) What is its recorded differential viability (reversal)?
## Result 4.2

## Task differential viability (reversal) for `COc1ccc(Nc2nc(OC)nc(N3CCN(c4ccc(OC)cc4)CC3)n2)cc1` ?
## Result -5.71

## Task Which differential viability (reversal) reading was recorded for the molecule `Fc1ccc(-c2csc3nnc(SCc4cccnc4)n23)cc1` ?
## Result -2.03

## Task Fill in: differential viability (reversal) of N#CC(C(=O)c1ccco1)c1ccccn1 (stereo not drawn) is ___
## Result 4.21

## Task What measured differential viability (reversal) goes with `CCN1CCN(c2ncc(C(=O)N3CCN(c4ccccc4OC)CC3)c3ccccc23)CC1` ?
## Result 14.7

## Task I am curious: what differential viability (reversal) value has been reported for `O=C(c1ccc(COc2c(F)c(F)c(F)c(F)c2F)o1)N1CCOCC1` ?
## Result 7.68

Next:
## Task Request the reported differential viability (reversal) associated with `CCc1ccc2nc(NC(=O)CSCc3c(C)noc3C)sc2c1`
## Result -10.5

## Task For the molecule shown here, `COc1ccc(OC)c(-c2nnc(SCC(=O)NC3CCCCC3)o2)c1` , give the reported differential viability (reversal).
## Result 6.21

###

# key: entry, value: viability
assay: reducers of endogenous Her2 protein level, primary screen, SKBR3 breast tumor cells, AlphaScreen, ATP viability (AID 461); settings: 18-24 h, measured here: SKBR3 viability, ATP luminescence, at 10 µM;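 further: percent of carrier control wells set as 100% viability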
Answer in %, number only, no unit symbol.

See these solved cases before continuing.
## Task # get_value(readout='viability', item= `CCN(CC)c1ccc2cc(NC(=O)CCC(=O)O)c(=O)oc2c1` )
## Result 89

## Task Please report the recorded viability for `Cn1c(=O)[nH]c2cc3ccccc3cc21` .
## Result 118

## Task I am curious: what viability value has been reported for `CCOC(=O)c1sc(C)c2c(=O)n(CC)nnc12` ?
## Result 94

Others:
## Task Item under review: `CCOc1ccccc1Nc1ncnc2ccccc12` . Reported viability?
## Result 101

###

List of viability values.
test: growth inhibitors of H69AR lung tumor, primary screen, human, duplicate replicates (AID 580); settings: H69AR lung tumor cells viability, ATP luminescence, 72 h; at 10 µM; stronger effect = lower value;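 further: 100% = mean luminescence of untreated wells and 0% = no signal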
Please respond with the number in % and leave the unit unwritten.

Below, 5 compounds whose answers are already recorded.
## Task Returns the measured viability for the input compound. Input: `Cc1nc(-c2cnn(-c3ccccc3)c2)c2cc(C)oc2n1`
## Result 90.7

## Task Quick one: viability for `CC1(C)CC(CCNC(=O)c2ccco2)CC(C)(C)N1` ?
## Result 98.8

## Task State the recorded viability for this entry: `Cn1nc(C(=O)N2CCOCC2)c2ccccc2c1=O`
## Result 89.3

## Task Can you share its viability? I mean this compound: `CCOC(=O)COc1ccc(S(=O)(=O)Nc2ccc3c(c2)OCO3)cc1`
## Result 91

## Task Recorded viability of `c1ccc(N2CCN(Cc3ccnc4ccccc34)CC2)cc1` , please.
## Result 72.4

***
## Task Reported viability for `CCOC(=O)c1oc2ccccc2c1NC(=O)COC` : what is it?
## Result 102

## Task What measured viability goes with `Cc1ccc2nc(SCC(=O)NCc3ccco3)c(C#N)cc2c1` ?
## Result 62.2

## Task Query (compound): `CCCn1c2c(c(O)c(C(=O)Nc3ccc(C)cn3)c1=O)CCCC2` ; field requested: viability
## Result 88

## Task Can you share its viability? I mean this compound: Cc1nc(NC2=NCN(CC3CCCO3)CN2)nc2ccccc12 (centres undefined)
## Result 85.1

## Task Item `Cc1ccc(S(=O)(=O)N2CCC(C(=O)NCCN3CCCCCC3)CC2)cc1` has what recorded viability?
## Result 103

## Task Given the compound COc1ccc(N2CCN(C(c3cccc(OC)c3OC)c3nnnn3C3CCCC3)CC2)cc1 (centres undefined) , what is its reported viability?
## Result 88.5

###

The following compounds are listed with their measured inhibition values.
test: growth suppression of yeast trafficking mutant, preliminary HTS, modulators of trafficking downstream of Golgi apparatus project, 1536-format plate, OD 615 nm (AID 637); conditions: yeast transport mutant growth, absorbance 615 nm, 18 h; stronger effect = higher value
# value in %; strip the unit string

Below: 3 compounds and their reported inhibition.
## Task What does the data say about its inhibition? Entry: COc1ccc(C(CC(=O)O)NC(=O)c2ccccc2)cc1OC (stereo unspecified)
## Result -6.33

## Task Looking for the measured inhibition of `c1ccc(CNc2c3c(nc4ncnn24)CCCC3)nc1` , can you help?
## Result -3.33

## Task Return reported inhibition; argument: `CC(C)(C)n1nnnc1CN1CCN(C2CCCC2)CC1`
## Result -2.3

Next:
## Task Request the reported inhibition associated with `Cc1ccc(S(=O)(=O)Cc2ccc(C(=O)NCc3ccc4c(c3)OCO4)o2)cc1`
## Result -4.76

## Task Can you share its inhibition? I mean this compound: `Cc1nn(C)cc1NC(=O)CCSc1nc(-c2ccco2)cc(C(F)(F)F)n1`
## Result 23.9

## Task inhibition lookup needed for Cc1[nH]c(=O)[nH]c(=O)c1S(=O)(=O)N1CCCC(C(=O)NCc2ccco2)C1 (stereo unspecified) , thanks.
## Result 0.67

## Task What does the record list as inhibition for `Cn1cnnc1SCC(=O)Nc1sc2c(c1C#N)CCCCC2` ?
## Result 27.9

## Task Value lookup for inhibition; key = `COc1cccc(C2=Nn3c(nnc3-c3ccccc3O)SC2)c1`
## Result -2.83

## Task Entry under review: `COc1ccc(OC)c(NC(=O)CSc2nc3ccccc3c(=O)n2CCNC(C)=O)c1` . Reported inhibition?
## Result 0.32

## Task Value lookup for inhibition; key = `OCCNc1nc2ccc(Cl)cc2[nH]1`
## Result 5.08

## Task Which inhibition value belongs to `CCC(=O)N1CCCc2cc(S(=O)(=O)N3CCCc4ccccc43)ccc21` ?
## Result -2.1
